Please respond with reported Bliss excess for every item in the list.
Test system: PANC-03-27 (Pancreatic Carcinoma);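 also: after 72 h of two-drug dosing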
assay: Bliss excess, mean over the matrix (fraction); higher = more synergy
Keep it simple and answer with nothing but the number.

## Task Given the entry COc1cccc(OCCCN)c1-c1cc(Nc2cnc(C#N)cn2)n[nH]1 [Prexasertib] + CN(C)CCCOc1ccc(-c2ccc3ncc4c(c3c2)n(C2CCOCC2)c(=O)n4C)cn1 [AZD0156] (first compound max 1 µM, 7x7, partner max 1 µM) , report its measured Bliss excess.
## Result -0.0704

## Task Given the entry CCN(CCO)CCCOc1ccc2c(Nc3cc(CC(=O)Nc4cccc(F)c4)[nH]n3)ncnc2c1 [AZD2811] + C=CCn1c(=O)c2cnc(Nc3ccc(N4CCN(C)CC4)cc3)nc2n1-c1cccc(C(C)(C)O)n1 [AZD1775] (first compound max 1 µM, partner max 1 µM) , report its measured Bliss excess.
## Result 0.001

----------
System: COLO-680N (Esophageal Squamous Cell Carcinoma)
assay: combination Emax (second highest fraction inhibited in the dose matrix, 72 h); higher = more inhibition; extreme values may be limits of the assay
Where combination Emax equals or exceeds 0.4, the correct label is True; where it does not, the label is False.

## Task Evaluate Cc1cc2ncnn2cc1Nc1ncc2c(n1)n(C1CCOCC1)c(=O)n2C [AZD7648] + C=CCn1c(=O)c2cnc(Nc3ccc(N4CCN(C)CC4)cc3)nc2n1-c1cccc(C(C)(C)O)n1 [AZD1775] (first compound max 10 µM, partner max 1 µM) : combination Emax at minimum 0.4?
## Result False

## Task Evaluate COc1nnc2ccc(N3CCC(c4ccc(OCCN5CCN(C)C(=O)[C@H]5C)cc4)CC3)nn12 [AZD5153] + CCN(CCO)CCCOc1ccc2c(Nc3cc(CC(=O)Nc4cccc(F)c4)[nH]n3)ncnc2c1 [AZD2811] (first compound max 1 µM, 7x7, partner max 1 µM) : combination Emax at minimum 0.4?
## Result False

## Task Evaluate Cc1c2c(nn1C)CSCc1cc(n(C)n1)CSc1cc(c3ccccc3c1)OCCCc1c(C(=O)O)n(C)c3c-2c(Cl)ccc13 [AZD5991] + CS(=O)(=O)CCNCc1ccc(-c2ccc3ncnc(Nc4ccc(OCc5cccc(F)c5)c(Cl)c4)c3c2)o1 [Lapatinib] (first compound max 1 µM, 7x7, partner max 10 µM) : combination Emax at minimum 0.4?
## Result False

## Task Evaluate NC1(C(=O)N[C@@H](CCO)c2ccc(Cl)cc2)CCN(c2ncnc3[nH]ccc23)CC1 [Capivasertib] + COc1nnc2ccc(N3CCC(c4ccc(OCCN5CCN(C)C(=O)[C@H]5C)cc4)CC3)nn12 [AZD5153] (first compound max 10 µM, 7x7, partner max 1 µM) : combination Emax at minimum 0.4?
## Result False

## Task Evaluate N#Cc1cnc(Nc2cc(NC[C@H]3CNCCO3)c(C(F)(F)F)cn2)cn1 [SRA737] + O=c1[nH]cc(F)c(=O)[nH]1 [5-Fluorouracil] (first compound max 10 µM, 7x7, partner max 20 µM) : combination Emax at minimum 0.4?
## Result False

## Task Evaluate Cc1c2c(nn1C)CSCc1cc(n(C)n1)CSc1cc(c3ccccc3c1)OCCCc1c(C(=O)O)n(C)c3c-2c(Cl)ccc13 [AZD5991] + CC(=O)O[C@H]1C(=O)[C@@]2(C)[C@H]([C@H](OC(=O)c3ccccc3)[C@]3(O)C[C@H](OC(=O)[C@H](O)[C@@H](NC(=O)c4ccccc4)c4ccccc4)C(C)=C1C3(C)C)[C@]1(OC(C)=O)CO[C@@H]1C[C@@H]2O [Paclitaxel] (first compound max 1 µM, 7x7, partner max 3 µM) : combination Emax at minimum 0.4?
## Result True

## Task Evaluate Cc1c2c(nn1C)CSCc1cc(n(C)n1)CSc1cc(c3ccccc3c1)OCCCc1c(C(=O)O)n(C)c3c-2c(Cl)ccc13 [AZD5991] + C=CCn1c(=O)c2cnc(Nc3ccc(N4CCN(C)CC4)cc3)nc2n1-c1cccc(C(C)(C)O)n1 [AZD1775] (first compound max 1 µM, partner max 1 µM) : combination Emax at minimum 0.4?
## Result False

## Task Evaluate N#Cc1cnc(Nc2cc(NC[C@H]3CNCCO3)c(C(F)(F)F)cn2)cn1 [SRA737] + Nc1ccn([C@@H]2O[C@H](CO)[C@@H](O)C2(F)F)c(=O)n1 [Gemcitabine] (first compound max 10 µM, 7x7, partner max 0.3 µM) : combination Emax at minimum 0.4?
## Result True
